property: melting point

Consider the worked cases shown below.
>>> observedmeasurement("O/N=C/Nc1ccc(N2CCCCC2)cc1")
"162 to 162.5 °C"
>>> observedmeasurement("O/N=C/Nc1c(Cl)cc(Cl)cc1Cl")
"166.5 to 167 °C"
>>> observedmeasurement("O/N=C/Nc1ccc(N2CCOCC2)cc1")
"182 to 182.5 °C"
>>> observedmeasurement("O/N=C/Nc1cccc2c1CCCC2")
"168.5 to 169 °C"
>>> observedmeasurement("C#CCCCOc1ccc(N/C=N/O)cc1")
"139 to 139.5 °C"

Next compound, melting point to be filled in.
Task item: Return reported melting point; argument: COc1ccc(Cl)cc1N/C=N/O
Reply: 155 to 156.5 °C

----------
property: melting point

Would you please look over these solved cases?
>>> observedmeasurement("CC(C)(C)CCOc1ccc(N/C=N/O)cc1 [Comp. 325]")
"123 to 125 °C"
>>> observedmeasurement("CC(C)c1ccc(N/C=N/O)cc1 [Comp. 30]")
"143 to 143.5 °C"

Task item: Which melting point value is on record for CCCCc1ccc(C)c(N/C=N/O)c1 [Comp. 133] ?
Reply: 116.5 to 117.5 °C

Task item: Using the record for CC(C)(C)c1ccccc1N/C=N/O.Cl [Comp. 8] , report its melting point.
Reply: 141 to 142 °C

Task item: Suppose we examine the compound C=CCCCOc1ccc(N/C=N/O)cc1 [Comp. 329] ; what melting point value has been reported?
Reply: 127 to 128 °C

Task item: What does the record list as melting point for CC(C)=CCOc1ccc(N/C=N/O)cc1 [Comp. 334] ?
Reply: 125 to 126 °C

----------
# Lookup of reported melting point keyed by entry

Would you please look over these solved cases?
>>> observedmeasurement("CN(C)CCOCCOc1ccc(N/C=N/O)cc1")
"57.5 to 59 °C"
>>> observedmeasurement("CN1CCCC(COc2ccc(N/C=N/O)cc2)C1 (stereo not drawn)")
"114 to 117 °C"

Task item: Value lookup for melting point; key = O/N=C/Nc1ccc(OCC2CC2)cc1
Reply: 141 to 142.5 °C

Task item: Find the recorded melting point belonging to COc1ccc(COc2ccc(N/C=N/O)cc2)c(OC)c1 and report it.
Reply: 178 to 178.5 °C

Task item: Any idea what melting point was measured for CC(C)c1cccc(N/C=N/O)c1 ?
Reply: 93 to 94.5 °C

Task item: Fill blank: measured melting point of the compound CCC(C)c1ccccc1N/C=N/O (stereo not drawn) is ____.
Reply: 144 to 145 °C

Task item: Can you look up the measured melting point of O/N=C/Nc1ccc(OCc2cccnc2)cc1 for me?
Reply: 156 to 157 °C

Task item: Query (compound): O/N=C/Nc1ccc2c(c1)CCC2 ; field requested: melting point
Reply: 142.5 to 144 °C

Task item: Which melting point is reported for this compound? O/N=C/Nc1ccc(Br)cc1
Reply: 163 to 164 °C

Task item: Would you kindly share the measured melting point for O/N=C/Nc1ccc(Oc2ccccc2)cc1 ?
Reply: 144 to 145.5 °C

----------
The reader will find reported melting point values listed item by item below.

Consider the following illustrative entries.
>>> observedmeasurement("OCCSc1ccc(N/C=N/O)cc1")
"121 °C"
>>> observedmeasurement("O/N=C/Nc1ccc(Cl)c(Cl)c1")
"119 to 120.5 °C"
>>> observedmeasurement("O/N=C/Nc1ccc(OCCc2ccsc2)cc1")
"132 to 134.5 °C"
>>> observedmeasurement("CCOc1ccc(N/C=N/O)cc1")
"149 to 150 °C"
>>> observedmeasurement("CCOC(=O)CCCCOc1ccc(N/C=N/O)cc1")
"125 to 127 °C"
>>> observedmeasurement("O=C1CCCN1CCOc1ccc(N/C=N/O)cc1")
"127.5 to 129.5 °C"
>>> observedmeasurement("COc1cccc(COc2ccc(N/C=N/O)cc2)c1")
"152.5 to 153.5 °C"
>>> observedmeasurement("COc1cccc(COc2ccc(N/C=N/O)cc2)c1OC")
"144 to 145 °C"

Task item: Consider the compound shown here: O=[N+]([O-])c1cc(F)ccc1N/C=N/O What is its recorded melting point?
Reply: 172.5 to 173 °C (dec.)

Task item: Which melting point value belongs to O/N=C/Nc1ccc(C2CCCCC2)cc1 ?
Reply: 153 to 154 °C

Task item: Find the recorded melting point belonging to O/N=C/Nc1ccc(OCCCc2ccccn2)cc1 and report it.
Reply: 138 to 139.5 °C

Task item: Sample O/N=C/Nc1ccc(OCCN2CCCC2)cc1 — what was its melting point?
Reply: 113.5 to 114.5 °C

Task item: Return reported melting point; argument: OCCCSc1ccc(N/C=N/O)cc1
Reply: 108 to 108.5 °C

Task item: What measured melting point goes with CC/C=C/COc1ccc(N/C=N/O)cc1 ?
Reply: 100 to 102 °C

Task item: Give its melting point value. Item: CC1(C)COC(CCOc2ccc(N/C=N/O)cc2)OC1
Reply: 136.5 to 137.5 °C

Task item: Query: melting point; subject: O/N=C/Nc1ccc(N2CCOCC2)c(Cl)c1
Reply: 177.5 to 178 °C

Task item: Any idea what melting point was measured for O/N=C/Nc1ccc(Oc2ccc(Cl)cc2)cc1 ?
Reply: 143 to 145 °C

Task item: Could you tell me which melting point is on file for Cc1cccc(COc2ccc(N/C=N/O)cc2)c1 ?
Reply: 161.5 to 162 °C

Task item: Item under review: COc1cccc(C(F)(F)F)c1N/C=N/O . Reported melting point?
Reply: 138 to 139.5 °C (dec.)

Task item: Find the recorded melting point belonging to CSCCOc1ccc(N/C=N/O)cc1 and report it.
Reply: 112 to 113 °C

Task item: Data request, read-out melting point, for CCC(C)c1ccc(N/C=N/O)cc1 (stereo not drawn)
Reply: 101 to 102.5 °C

Task item: For the compound shown here, CC(C)(C)COc1ccc(N/C=N/O)cc1 , give the reported melting point.
Reply: 148.5 to 149.5 °C

Task item: melting point for CCCOc1ccc(N/C=N/O)cc1 ?
Reply: 132 to 133 °C

Task item: Record request: melting point value, item C/C=C/C=C/COc1ccc(N/C=N/O)cc1
Reply: 169.5 to 170 °C

----------
# Tested on: 20-HETE synthase originated from rat kidney microsome
# procedureSummary: Inhibitory effect of 20-HETE synthase originated from rat kidney microsome
# Format: biochemical
# details: concentration at which production of 20-HETE was inhibited to 50%
property: IC50 (nM)

>>> observedmeasurement("CCN(CC)CCOCCOc1ccc(N/C=N/O)cc1 [Comp. 398]")
2.4
>>> observedmeasurement("O=C1CCCN1CCOc1ccc(N/C=N/O)cc1 [Comp. 407]")
4.9
>>> observedmeasurement("OCCCCCOc1ccc(N/C=N/O)cc1 [Comp. 427]")
2.6
>>> observedmeasurement("O/N=C/Nc1ccc(OCCCn2cccc2)cc1 [Comp. 412]")
1.5
>>> observedmeasurement("O/N=C/Nc1ccc(OCC2COc3ccccc3O2)cc1 (centres unmarked) [Comp. 410]")
1
>>> observedmeasurement("O/N=C/Nc1ccc(OCCCN2CCCC2)cc1 [Comp. 429]")
79.1
>>> observedmeasurement("O=C([O-])CCCCCOc1ccc(N/C=N/O)cc1.[Na+] [Comp. 425]")
3
>>> observedmeasurement("O/N=C/Nc1ccc(OCCc2cccs2)cc1 [Comp. 422]")
1.5

a = CN(C)CC(C)(C)COc1ccc(N/C=N/O)cc1 [Comp. 403]
b = CC(=O)OCCCCCOc1ccc(N/C=N/O)cc1 [Comp. 426]
Task item: Smaller IC50 value, a vs b ? Mark your selection by writing its label.
Reply: b
(b: 5.1 nM, a: 28.5 nM)

----------
# Tested on: 20-HETE synthase originated from rat kidney microsome
# procedureSummary: Inhibitory effect of 20-HETE synthase originated from rat kidney microsome
# Assay type: biochemical
# details: concentration at which production of 20-HETE was inhibited to 50%
# Description: Experimental Example [Inhibitory effect of 20-HETE synthase originated from rat kidney microsome] Regarding the compounds listed in Table 1, their inhibitory activity to production of 20-HETE was examined. […] The activity of 20-HETE synthase was measured by using a high performance liquid chromatograph having a detector for radioactive substances (supplied by Gilson), and equipped with a C18 reversed phase column (Biocyl C18, supplied by Bio-rad).
property: IC50 (nM)

A selection of reference data follows.
>>> observedmeasurement("CSCCOc1ccc(N/C=N/O)cc1 [Comp. 413]")
2.3
>>> observedmeasurement("CSCCCOc1ccc(N/C=N/O)cc1 [Comp. 414]")
1
>>> observedmeasurement("CN1CCCC(COc2ccc(N/C=N/O)cc2)C1 (stereo not drawn) [Comp. 415]")
17.6
>>> observedmeasurement("CN(C)CCCCOc1ccc(N/C=N/O)cc1 [Comp. 401]")
37.6
>>> observedmeasurement("O=C([O-])CCCCOc1ccc(N/C=N/O)cc1.[Na+] [Comp. 434]")
3.2

a = O/N=C/Nc1ccc(OCC2CCO2)cc1 (stereo not drawn) [Comp. 409]
b = O/N=C/Nc1ccc(OCCCCCN2CCCC2)cc1 [Comp. 432]
c = O/N=C/Nc1ccc(OCC2CCCCO2)cc1 (stereo not drawn) [Comp. 421]
Task item: Put these in order: smallest IC50 first, largest last. Enter labels, ranked according to the request.
Reply: c, a, b

1 = CN(C)CCOc1ccc(N/C=N/O)cc1 [Comp. 399]
2 = OCCSc1ccc(N/C=N/O)cc1 [Comp. 444]
3 = CC(C)Sc1ccc(N/C=N/O)cc1 [Comp. 439]
4 = CCOC(=O)CCCCOc1ccc(N/C=N/O)cc1 [Comp. 433]
5 = CN(C)CCCOc1ccc(N/C=N/O)cc1 [Comp. 400]
Task item: # rank by IC50, ascending (min first) // ordering of labels required in reply
Reply: 4, 3, 2, 5, 1
(4: 1.5 nM, 3: 2.9 nM, 2: 12.1 nM, 5: 48.7 nM, 1: 98 nM)

a = CN(C)CCOCCOc1ccc(N/C=N/O)cc1 [Comp. 404]
b = OCC(O)COc1ccc(N/C=N/O)cc1 (stereo not drawn) [Comp. 436]
Task item: Consider a and b . Which of these has its IC50 at a higher number? // return label of chosen record
Reply: a

FYI, the data here is from patent US7078400B2.
